# credit: patent US20230303552A1

- experimental_target: human M5 receptors (hM5) (Homo sapiens, UniProt P08912)
- Construct: expressed in transfected cells
- Sequence (P08912 whole entry): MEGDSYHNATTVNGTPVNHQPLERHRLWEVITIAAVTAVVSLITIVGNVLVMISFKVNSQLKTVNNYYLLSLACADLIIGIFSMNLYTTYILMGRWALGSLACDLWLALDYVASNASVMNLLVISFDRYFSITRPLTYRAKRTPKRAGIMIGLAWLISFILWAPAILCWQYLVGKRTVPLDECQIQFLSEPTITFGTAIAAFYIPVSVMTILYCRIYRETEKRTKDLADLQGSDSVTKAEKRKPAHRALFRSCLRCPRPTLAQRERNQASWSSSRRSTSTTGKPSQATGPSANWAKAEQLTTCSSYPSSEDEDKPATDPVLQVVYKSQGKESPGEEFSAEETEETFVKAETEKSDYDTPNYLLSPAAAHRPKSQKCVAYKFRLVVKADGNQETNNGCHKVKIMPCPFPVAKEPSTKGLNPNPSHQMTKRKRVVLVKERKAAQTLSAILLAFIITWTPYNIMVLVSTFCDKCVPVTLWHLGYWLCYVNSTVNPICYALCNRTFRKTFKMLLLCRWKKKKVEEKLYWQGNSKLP
- method_summary: Cell-based functional calcium mobilization assay of mAChR M5 activity (inhibition of EC80 acetylcholine response) in CHO cells
- recorded_conditions: CHO cells stably expressing hM5; minimum of EC80 acetylcholine response, normalized to maximum acetylcholine response
recorded_metric: EC80 MIN (%)
Lab book: enter the figure in %, no units written.

Guide cases for EC80 MIN, answers given:
Cc1cccc(S(=O)(=O)N2CCC(C(=O)Nc3ccc4scnc4c3)CC2)c1 5
O=C(Nc1ccc2scnc2c1)C1CCN(S(=O)(=O)c2ccc(Cl)cc2)CC1 16
C[C@H]1CN(S(=O)(=O)c2ccc3c(c2)CCO3)C[C@@H]1C(=O)Nc1ccc2scnc2c1 3

Let's switch to this compound now.
What does the record list as EC80 MIN for Cc1cc2scnc2cc1NC(=O)C1CCN(S(=O)(=O)c2ccc3c(c2)CCO3)CC1 ?
49

---

- experimental_target: human M5 receptors (hM5) (Homo sapiens)
- Construct: expressed in transfected cells
- method_summary: Cell-based functional calcium mobilization assay of mAChR M5 activity (inhibition of EC80 acetylcholine response) in CHO cells
- recorded_conditions: CHO cells stably expressing hM5; minimum of EC80 acetylcholine response, normalized to maximum acetylcholine response
recorded_metric: EC80 MIN (%)
Lab book: enter the figure in %, no units written.

compound	EC80 MIN (%)
CC(=O)N(C(=O)C1CCN(S(=O)(=O)c2ccc3c(c2)CCO3)CC1)c1ccc2scnc2c1 [Compound 85]	3
O=C(Nc1ccc2scnc2c1)[C@H]1CCN(S(=O)(=O)c2ccc3c(c2)CCO3)C1 [Compound 55]	3

Let's switch to this compound now.
What does the record list as EC80 MIN for C[C@H]1CN(S(=O)(=O)c2ccc3c(c2)CCO3)CC[C@@H]1C(=O)Nc1ccc2scnc2c1 (racemic) [Compound 116] ?
3
